Tested on: TNF-α
test.method.notes: Inhibitory activity on TNF-α production from LPS-stimulated human PBMC (ELISA)
Type: cell-based
measurement.context: human PBMC, LPS 10 µg/ml, incubation 24 hours, supernatant ELISA; read-out: TNF-α IC50

>  <smiles.entry>
Cc1nnc2n1-c1ccccc1C(c1ccc(Cl)cc1)=NN2Cc1ccc[n+]([O-])c1

>  <IC50 / µM>
0.13

$$$$

----------
Test system: IL-8
test.method.notes: Inhibitory activity on IL-8 production from LPS-stimulated human PBMC (immunoassay)
Type: cell-based
measurement.context: 24 h, read-out: IL-8 IC50 (µM)
readout.kind: IC50 (µM)

>  <smiles.entry>
Cc1nnc2n1-c1ccccc1C(c1ccc(Cl)cc1)=NN2Cc1cccnc1

>  <target.of.assay>
IL-8

>  <readout.kind>
IC50

>  <value>
0.26

$$$$

Origin of measurements: patent EP0934940A1
